System: mice
Assay: Acute in vivo toxicity after IV injection
Conditions: 75 μg IV
Positions of bridges follow the written chain, without caps; N, C: chain ends. Chains are numbered I, II in the order given. No end group written: not given here.
Parameter: number of mice who survive treatment / number of mice in treatment group. Scope: all listed entries.
observed-property: number of mice who survive treatment / number of mice in treatment group

substance	value
KHKHKHKHKGKHKHKHKHK [linear HK, [K-H-K-H-K-H-K-H-K-G-K-H-K-H-K-H-K-H-K]]	2/2
I: KHKHHKHHKHHKHHKHHKHKKKK / II: KHKHHKHHKHHKHHKHHKHK / III: KHKHHKHHKHHKHHKHHKHK / IV: KHKHHKHHKHHKHHKHHKHK (amide I:21-IV:C, I:22-III:C, I:23-II:C) [H^2K4b]	2/2
RHKHKHKHKGKHKHKHKHK [HK-R, [R-H-K-H-K-H-K-H-K-G-K-H-K-H-K-H-K-H-K]]	2/2

----------
Parameter: number of mice who survive treatment / number of mice in treatment group. Scope: all listed entries.
Test system: mice
Assay: Acute in vivo toxicity after IV injection
Details: 300 μg IV
Positions of bridges follow the written chain, without caps; N, C: chain ends. Chains are numbered I, II in the order given. No end group written: not given here.
observed-property: number of mice who survive treatment / number of mice in treatment group

substance	assayed-target	value
KHKHKHKHKGKHKHKHKHK [linear HK, [K-H-K-H-K-H-K-H-K-G-K-H-K-H-K-H-K-H-K]]	mice	2/2
I: KHHHKHHHKHHHKHHHKKKK / II: KHHHKHHHKHHHKHHHK / III: KHHHKHHHKHHHKHHHK / IV: KHHHKHHHKHHHKHHHK (amide I:18-IV:C, I:19-III:C, I:20-II:C) [H^3K4b, [K-H-H-H-K-H-H-H-K-H-H-H-K-H-H-H-K]4K3]	mice	2/2
I: KHKHHKHHKHHKHHKHHKHKKKK / II: KHKHHKHHKHHKHHKHHKHK / III: KHKHHKHHKHHKHHKHHKHK / IV: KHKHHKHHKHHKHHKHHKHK (amide I:21-IV:C, I:22-III:C, I:23-II:C) [H^2K4b]	mice	2/2
RHRHRHRHRGRHRHRHRHR [linear RH, [R-H-R-H-R-H-R-H-R-G-R-H-R-H-R-H-R-H-R]]	mice	0/2
RHKHKHKHKGKHKHKHKHK [HK-R, [R-H-K-H-K-H-K-H-K-G-K-H-K-H-K-H-K-H-K]]	mice	0/2
I: KHKHKHKHKGKHKHKHKHKKKK / II: KHKHKHKHKGKHKHKHKHK / III: KHKHKHKHKGKHKHKHKHK / IV: KHKHKHKHKGKHKHKHKHK (amide I:20-IV:C, I:21-III:C, I:22-II:C) [HK4b]	mice	2/2

----------
System: mice
Assay: Acute in vivo toxicity after IV injection
Details: 600 μg IV
Positions of bridges follow the written chain, without caps; N, C: chain ends. Chains are numbered I, II in the order given. No end group written: not given here.
Parameter: number of mice who survive treatment / number of mice in treatment group. Scope: all listed entries.
observed-property: number of mice who survive treatment / number of mice in treatment group

substance	value
RHRHRHRHRGRHRHRHRHR [linear RH, [R-H-R-H-R-H-R-H-R-G-R-H-R-H-R-H-R-H-R]]	0/2
RHKHKHKHKGKHKHKHKHK [HK-R, [R-H-K-H-K-H-K-H-K-G-K-H-K-H-K-H-K-H-K]]	0/2
KHKHKHKHKGKHKHKHKHK [linear HK, [K-H-K-H-K-H-K-H-K-G-K-H-K-H-K-H-K-H-K]]	0/2
I: KHKHKHKHKGKHKHKHKHKKKK / II: KHKHKHKHKGKHKHKHKHK / III: KHKHKHKHKGKHKHKHKHK / IV: KHKHKHKHKGKHKHKHKHK (amide I:20-IV:C, I:21-III:C, I:22-II:C) [HK4b]	2/2
I: KHHHKHHHKHHHKHHHKKKK / II: KHHHKHHHKHHHKHHHK / III: KHHHKHHHKHHHKHHHK / IV: KHHHKHHHKHHHKHHHK (amide I:18-IV:C, I:19-III:C, I:20-II:C) [H^3K4b, [K-H-H-H-K-H-H-H-K-H-H-H-K-H-H-H-K]4K3]	2/2
I: KHKHHKHHKHHKHHKHHKHKKKK / II: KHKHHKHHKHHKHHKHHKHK / III: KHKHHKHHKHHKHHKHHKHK / IV: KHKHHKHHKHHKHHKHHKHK (amide I:21-IV:C, I:22-III:C, I:23-II:C) [H^2K4b]	2/2

----------
Test system: mice
Assay: Acute in vivo toxicity after IV injection
Settings: 150 μg IV
Positions of bridges follow the written chain, without caps; N, C: chain ends. Chains are numbered I, II in the order given. No end group written: not given here.
observed-property: number of mice who survive treatment / number of mice in treatment group

substance	assayed-target	value
I: KHKHKHKHKGKHKHKHKHKKKK / II: KHKHKHKHKGKHKHKHKHK / III: KHKHKHKHKGKHKHKHKHK / IV: KHKHKHKHKGKHKHKHKHK (amide I:20-IV:C, I:21-III:C, I:22-II:C) [HK4b]	mice	2/2
I: KHHHKHHHKHHHKHHHKKKK / II: KHHHKHHHKHHHKHHHK / III: KHHHKHHHKHHHKHHHK / IV: KHHHKHHHKHHHKHHHK (amide I:18-IV:C, I:19-III:C, I:20-II:C) [H^3K4b, [K-H-H-H-K-H-H-H-K-H-H-H-K-H-H-H-K]4K3]	mice	2/2
I: KHKHHKHHKHHKHHKHHKHKKKK / II: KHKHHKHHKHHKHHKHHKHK / III: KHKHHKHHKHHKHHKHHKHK / IV: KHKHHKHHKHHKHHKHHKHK (amide I:21-IV:C, I:22-III:C, I:23-II:C) [H^2K4b]	mice	2/2
RHKHKHKHKGKHKHKHKHK [HK-R, [R-H-K-H-K-H-K-H-K-G-K-H-K-H-K-H-K-H-K]]	mice	2/2
KHKHKHKHKGKHKHKHKHK [linear HK, [K-H-K-H-K-H-K-H-K-G-K-H-K-H-K-H-K-H-K]]	mice	2/2
RHRHRHRHRGRHRHRHRHR [linear RH, [R-H-R-H-R-H-R-H-R-G-R-H-R-H-R-H-R-H-R]]	mice	2/2

----------
Parameter: number of mice who survive treatment / number of mice in treatment group. Scope: all listed entries.
System: mice
Assay: Acute in vivo toxicity after IV injection
Settings: 75 μg IV
Positions of bridges follow the written chain, without caps; N, C: chain ends. Chains are numbered I, II in the order given. No end group written: not given here.
observed-property: number of mice who survive treatment / number of mice in treatment group

substance	assayed-target	value
I: KHKHKHKHKGKHKHKHKHKKKK / II: KHKHKHKHKGKHKHKHKHK / III: KHKHKHKHKGKHKHKHKHK / IV: KHKHKHKHKGKHKHKHKHK (amide I:20-IV:C, I:21-III:C, I:22-II:C) [HK4b]	mice	2/2
I: KHHHKHHHKHHHKHHHKKKK / II: KHHHKHHHKHHHKHHHK / III: KHHHKHHHKHHHKHHHK / IV: KHHHKHHHKHHHKHHHK (amide I:18-IV:C, I:19-III:C, I:20-II:C) [H^3K4b, [K-H-H-H-K-H-H-H-K-H-H-H-K-H-H-H-K]4K3]	mice	2/2
RHRHRHRHRGRHRHRHRHR [linear RH, [R-H-R-H-R-H-R-H-R-G-R-H-R-H-R-H-R-H-R]]	mice	2/2

Values were extracted from patent US7465708B2.
